target_system: Proteasome subunit beta (Trypanosoma cruzi) (UniProt O96673)
Sequence (O96673 as listed by the source): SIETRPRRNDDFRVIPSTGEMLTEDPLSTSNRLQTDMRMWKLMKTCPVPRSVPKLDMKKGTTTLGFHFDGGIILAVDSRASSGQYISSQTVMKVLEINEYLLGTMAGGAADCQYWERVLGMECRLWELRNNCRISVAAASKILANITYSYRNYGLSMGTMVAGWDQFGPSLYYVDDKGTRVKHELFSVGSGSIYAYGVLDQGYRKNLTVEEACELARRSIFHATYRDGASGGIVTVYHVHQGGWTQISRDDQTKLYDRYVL
assay_details: Trypanosoma cruzi proteasome chymotrypsin-like activity (TcProtChymo) assay. Further: in the data most compounds retested in dose-response had high values.
Assay type: functional
Parameters: scale not given: direction of the effect not stated beside the values
applied_conditions: 9.37 µM

| compound | Percent Effect |
| --- | --- |
| CC(NCc1ccc(F)cc1)c1ccc(OCC(=O)NC2CC2)cc1 (stereo unspecified) | 18% |
| CCn1nc(C)c(CNC(=O)c2cn(CCC3CCCCN3)nn2)c1C (stereo unspecified) | 9.77% |
| CN(Cc1nnc(C2CC2)n1C)C1CCN(Cc2ccccc2F)C1 (stereo unspecified) | 10.4% |
| COc1cccc(COCC(=O)N2CCCC(N3CCCC3)CC2)c1 (stereo unspecified) | 6.52% |
| O=C(c1cnccn1)N1CCOCC2(CCN(C3CCOCC3)C2)C1 (stereo unspecified) | 19.4% |
| Cc1ncsc1CCC(=O)NCc1cc2n(n1)CCN(C(=O)N(C)C)C2 | 15.3% |
| Cc1nn2c(N3CCC(O)C3)cc(-c3ccccc3)nc2c1C (stereo unspecified) | 12.6% |
| COc1cc(C)sc1C(=O)N1CCC(Nc2cccnc2)CC1 | 3% |
| O=C(NCCc1cccs1)[C@H]1CO[C@H]2CCNC[C@H]2C1 | 19.4% |
| CN(CCCc1ccccc1)Cc1nc2c(cnn2C)c(=O)[nH]1 | 5.95% |
| CCCNC(=O)c1c(-n2cnnn2)sc2c1CCC2 | 9.3% |
| CCCc1nc(CN2CCOC(Cn3cncn3)C2)no1 (stereo unspecified) | 12.3% |
| Cc1cccc(CNCc2c(C(C)C)nn(C)c2N2CCOCC2)n1 | 5.68% |
| COCCN1C[C@@H]2CCCO[C@@H]2[C@H](NC(=O)c2cnccn2)C1 | 3.59% |
| CC1CN(Cc2noc(C3CC3)n2)CCN1Cc1nccn1C (stereo unspecified) | 1.72% |
| Cn1ccc2c(C(=O)N3CCC(C(N)=O)CC3)cccc21 | 13.1% |
| Cc1cc(NC(=O)CN2CCCC2c2noc(C3CC3)n2)no1 (stereo unspecified) | 16.9% |
| CCN1CCN(Cc2coc(-c3cccc(F)c3)n2)CC1 | 16.6% |
| O=C1COC2(COCCN(Cc3cccnc3)C2)CN1c1ccoc1 (stereo unspecified) | 4.87% |
| COc1c(C2CCCN2Cc2cc(C)no2)c(C)nn1C (stereo unspecified) | 11.3% |
| O=C(c1ncccn1)N1C[C@H]2CCC[C@@]2(COCc2ccncc2)C1 | 13.9% |

----------
target_system: AMP-activated protein kinase, AMPK (Homo sapiens) (UniProt P54646+O43741+P54619+Q9UGJ0+Q9Y478+Q13131+Q9UGI9)
assay_details: AMP-dependent Kinase enzyme assay. An in vitro enzyme assay that detects ADP turnover that is directly proportional to AMPK activity. This uses naive AMPK that is activated during the assay with MK-8722
Format: functional
Set-up: scale not given: direction of the effect not stated beside the values
applied_conditions: 30 µM

| compound | Percent Effect / % |
| --- | --- |
| CC(C)NC(=O)Cn1cc(-c2ccccc2)cn1 | 6.33 |
| CCc1nc(CN2CCOC(Cn3nc(C)nc3C)C2)no1 (centres undefined) | 2.58 |
| Cc1occc1C(=O)N1CCC2(CC1)NC(=O)CC2c1cnn(C)c1 (centres undefined) | -0.0675 |
| COCC(=O)N1CCCC1c1cc(Nc2nnc(C)s2)nc(C)n1 (centres undefined) | -6.16 |

----------
Test system: Trypanosoma cruzi
assay_details: Trypanosoma cruzi phosphomannomutase and mannose-1-phosphate guanylyltransferase assay
Type: functional
Set-up: scale not given: direction of the effect not stated beside the values
applied_conditions: 10 µM
measured_metric: Percent Effect (%)

| molecule | target_system | result_units | reported |
| --- | --- | --- | --- |
| CC(NC(=O)NCCCN(C)S(C)(=O)=O)c1cccc(Cl)c1 (centres undefined) | Trypanosoma cruzi | % | -2.97 |
| CCS(=O)(=O)c1ccc(N2CCC(NC(C)=O)CC2)cc1 | Trypanosoma cruzi | % | -3.21 |
| CCNc1cc2c(nn1)CCN(C(=O)c1ccc(NC3CC3)nc1)C2 | Trypanosoma cruzi | % | 3.38 |
| Cc1ccc(CN2CC(C(=O)Nc3ccccc3)C3(CCOCC3)C2)s1 (centres undefined) | Trypanosoma cruzi | % | -0.579 |
| Cc1ccc(S(=O)(=O)NC2CNC(=O)C2)cc1C (centres undefined) | Trypanosoma cruzi | % | 0.588 |
| CN1CCOC(CNCc2nc(-c3ccccc3)cs2)C1 (centres undefined) | Trypanosoma cruzi | % | 5.95 |
| COCCn1ccc(=O)c(OCC(=O)Nc2ccccc2)c1C | Trypanosoma cruzi | % | 1.38 |
| CN1N=C(C(=O)Nc2cc(F)ccc2OCC2CCCO2)CCC1=O (centres undefined) | Trypanosoma cruzi | % | 7.3 |
| Cc1cc(C)n(CC2CCCN2C(=O)CCCc2ccccn2)n1 (centres undefined) | Trypanosoma cruzi | % | -3.76 |
| O=C(NCC1CCN(Cc2ccsc2)CC1)NC1CC1 | Trypanosoma cruzi | % | -5.62 |
| CS(=O)(=O)Cc1ccc(CNC(=O)c2cccnc2O)cc1 | Trypanosoma cruzi | % | -5.64 |
| CN1CCc2c(C#N)c(NCCCN3CCOCC3)n3cnnc3c2C1 | Trypanosoma cruzi | % | -1.46 |
| CCC(=O)N1CCN(Cc2cc(-c3ccncc3)nn2C)CC1 | Trypanosoma cruzi | % | -3.56 |
| CCOCC1CN(Cc2ccoc2)Cc2nn(CC3CC3)cc21 (centres undefined) | Trypanosoma cruzi | % | -3.52 |
| Cc1nn(C)cc1C(=O)Nc1cccc(CN2CCC(CO)CC2)c1 | Trypanosoma cruzi | % | 3.41 |
| CCCNC(=O)C(C)n1cc(Br)cn1 (centres undefined) | Trypanosoma cruzi | % | -1.87 |
| CNC(=O)CN1CCC(NC(=O)N(C)Cc2cc(C)on2)CC1 | Trypanosoma cruzi | % | 9.7 |
| COc1ccc(C(O)CNc2c(C#N)c(=O)n(C)c(=O)n2C)cc1 (centres undefined) | Trypanosoma cruzi | % | -6.33 |
| c1cnn(Cc2cn3c(n2)CN(Cc2nccs2)CC3)c1 | Trypanosoma cruzi | % | 5.23 |
| O=S(=O)(CCN1CCOC(Cn2cccn2)C1)C(F)(F)F (centres undefined) | Trypanosoma cruzi | % | 2.97 |
| CCn1ncc(CN2CCc3c(nc(-c4cccnc4)[nH]c3=O)C2)c1C | Trypanosoma cruzi | % | 7.87 |
| COCC(=O)N1CC[C@@H]2CN(Cc3cccc(Cl)c3)S(=O)(=O)[C@@H]2CC1 | Trypanosoma cruzi | % | -6.18 |
| CC(C)c1nnc2ccc(N3CCC(C(=O)Nc4nccs4)CC3)nn12 | Trypanosoma cruzi | % | 3.54 |
| OC1(CN2CCCC2)CCCN(Cc2ccc(F)cc2Cl)C1 (centres undefined) | Trypanosoma cruzi | % | -7.5 |
| CCOc1cccc2c1OCC(C(=O)NS(=O)(=O)c1ccc(C)s1)=C2 | Trypanosoma cruzi | % | -1.98 |
| CCC(CO)N(Cc1ccccn1)C(=O)c1ccc2c(c1)CCO2 (centres undefined) | Trypanosoma cruzi | % | 7.89 |
| O=C(CCc1cc(O)no1)N1CCCC(COc2ccc(F)cc2)C1 (centres undefined) | Trypanosoma cruzi | % | 3.6 |
| COc1cc(CN(C(=O)Nc2cccnc2OC)C2CC2)ccc1O | Trypanosoma cruzi | % | -2.25 |
| CN(Cc1ccncc1)CC(c1cccs1)N1CCOCC1 (centres undefined) | Trypanosoma cruzi | % | 8.63 |
| CS(=O)(=O)N1CCC(C(=O)NCCNc2ncccn2)CC1 | Trypanosoma cruzi | % | 8.45 |
| CCN(CCNC(=O)c1ccccc1OCCOC)C1CC1 | Trypanosoma cruzi | % | 0.513 |
| COc1cc2cc(C(=O)O)n(C)c2cc1OC | Trypanosoma cruzi | % | -0.982 |
| CCOc1ccc(N2CCCN=C2NC(=O)c2ccccc2C)cc1 | Trypanosoma cruzi | % | -0.0983 |
| COCC1CC2(CCN(C(=O)c3cccn3C)CC2)CN1C(C)C (centres undefined) | Trypanosoma cruzi | % | 1.37 |

----------
target_system: Tyrosyl-tRNA synthetase, putative (Trypanosoma cruzi (strain CL Brener))
assay_details: Trypanosoma cruzi tyrosyl tRNA synthetase (TcYRS) SOP
Assay type: functional
Parameters: scale not given: direction of the effect not stated beside the values
applied_conditions: 30 µM

| compound | Percent Effect (%) |
| --- | --- |
| Cc1nc(CN2CCCn3c(nc(Cn4ccnc4)cc3=O)C2)cs1 | 0 |
| O=C(CCc1nccs1)N1CCN(c2cccnn2)CC1 | 9.41 |
| Cn1nnc2c1CCN(CC1CC1)C2COCc1ccccc1 (stereo unspecified) | 14.1 |
| COC(=O)C(NC(=O)c1ccco1)c1cc(F)ccc1F (stereo unspecified) | 14.6 |
| CCc1nc(CN2CCCC(NCc3nnc(C4CC4)o3)C2)no1 (stereo unspecified) | 25.9 |
| Cn1ccc(CN2CCC(CCc3ccc(O)cc3)CC2)cc1=O | -17.7 |

All figures here come from ChEMBL document CHEMBL3988442.
